- Test system: OCI-LY10
- run_description: CTG Cell Viability Assay - OCI-LY10
- Type: cell-based, human
- assay_setup: Homo sapiens, OCI-Ly10, 96 h, OCI-LY10, 4 days; read-out: CTG Cell Viability Assay - OCI-LY10: Average external-IC50
- Method: Compound-mediated viability effect on OCI-LY10 or TMD8 was quantitatively determined using the CellTiter-Glo® Luminescent Cell Viability Assay kit from Promega (Catalog number G7570) following manufacturer's recommended procedures. […] The data was then analyzed by software Prism 7.0 from GraphPad and the dose response curves were fit using a three-parameter logistic equation to calculate IC50.
pIC50: −log10 of the molar value.

compound	pIC50
O=C1CCC(N2C(=O)c3cccc(NCCCOCC4CCN(C[C@H]5CC[C@H](n6cc7cc(NC(=O)c8cccc(C(F)(F)F)n8)c(C(F)F)cc7n6)CC5)CC4)c3C2=O)C(=O)N1 (stereo partly shown)	6.00 to 6.30
O=C1CCC(n2c(=O)oc3cc(CCCOC4CCN(C[C@H]5CC[C@H](n6cc(NC(=O)c7cnn8ccc(N9CCNCC9)nc78)c(C(F)F)n6)CC5)CC4)ccc32)C(=O)N1 (stereo partly shown)	< 6.00
CN1C(=O)CCC(N2C(=O)c3cccc(NCCCOCCCS(=O)(=O)N(C)C(=O)[C@H]4CC[C@H](n5cc(NC(=O)c6cnn7ccc(N8C[C@H]9C[C@@H]8CO9)nc67)c(C(F)F)n5)CC4)c3C2=O)C1=O (stereo in doubt)	< 6.00
Cn1c(=O)n(C2CCC(=O)NC2=O)c2cccc(CCCOC3CCN(C[C@H]4CC[C@H](n5cc(NC(=O)c6cnn7ccc(N8C[C@H]9CC[C@@H](C8)O9)nc67)c(C(F)F)n5)CC4)CC3)c21 (stereo partly shown)	< 6.00
Cn1c(=O)n(C2CCC(=O)NC2=O)c2cccc(CN3CCC(CCN4CC(n5cc(NC(=O)c6coc(-c7ccnc(NCC8CC8)c7)n6)c(C(F)F)n5)C4)CC3)c21 (stereo not shown)	> 7.30
CC[C@@H]1[C@H](F)C(=O)N[C@@H]1COc1ncc(C#CC2CCN(CC3CCN(Cc4cccc5c4n(C)c(=O)n5C4CCC(=O)NC4=O)CC3)CC2)c2cc(C(N)=O)c(OC)cc12 (stereo partly shown)	< 6.00
Cn1c(=O)n(C2CCC(=O)NC2=O)c2cccc(CCCOC3CCN(C[C@H]4CC[C@H](n5cc(NC(=O)c6coc(-c7ccnc(NCC8CC8)c7)n6)c(C(F)F)n5)CC4)CC3)c21 (stereo partly shown)	> 7.30
Cn1c(=O)n(C2CCC(=O)NC2=O)c2cccc(CCN3CC4(CCN(C(=O)[C@H]5CC[C@H](n6cc(NC(=O)c7cnn8ccc(N9C[C@H]%10C[C@@H]9CO%10)nc78)c(C(F)F)n6)CC5)CC4)C3)c21 (stereo partly shown)	> 7.30
Cn1c(=O)n(C2CCC(=O)NC2=O)c2ccc(C#CCCCNC[C@H]3CC[C@H](n4cc(NC(=O)c5cnn6ccc(N7C[C@H]8C[C@@H]7CO8)nc56)c(C(F)F)n4)CC3)cc21 (stereo in doubt)	< 6.00
N#CCc1ccc2c(N[C@H]3CC[C@H](N4CCN(C(=O)COCCOCCOCCOCCNc5cccc6c5C(=O)N(C5CCC(=O)NC5=O)C6=O)CC4)CC3)ncnc2c1 (stereo partly shown)	6.30 to 7.00
Cn1c(=O)n(C2CCC(=O)NC2=O)c2ccc(CCCOC3CCN(C[C@H]4CC[C@H](n5cc(NC(=O)c6cnn7ccc(N8CCOCC8)nc67)c(C(F)F)n5)CC4)CC3)cc21 (stereo partly shown)	< 6.00
O=C1CCC(N2C(=O)c3cccc(NC[C@H]4CC[C@H](OC5CCN(C[C@H]6CC[C@H](n7cc(NC(=O)c8cnn9ccc(N%10CCOCC%10)nc89)c(C(F)F)n7)CC6)CC5)CC4)c3C2=O)C(=O)N1 (stereo partly shown)	> 7.30
O=C1CCC(N2C(=O)c3cccc(CNC4CC5(CCN(C[C@H]6CC[C@H](n7cc(NC(=O)c8cnn9ccc(N%10C[C@H]%11C[C@@H]%10CO%11)nc89)c(C(F)F)n7)CC6)CC5)C4)c3C2=O)C(=O)N1 (stereo partly shown)	< 6.00
CN(CCCOCCCNc1cccc2c1C(=O)N(C1CCC(=O)NC1=O)C2=O)Cc1ccc(-n2cc(NC(=O)c3coc(-c4ccnc(NCC5CC5)c4)n3)c(C(F)F)n2)cc1 (stereo not shown)	6.30 to 7.00
CC[C@@H]1[C@H](F)C(=O)N[C@@H]1COc1ncc(C#C[C@H]2CC[C@H](CN3CCC(OCCC#Cc4ccc([C@H]5CN(C6CCC(=O)NC6=O)C(=O)O5)cc4)CC3)CC2)c2cc(C(N)=O)c(OC)cc12 (stereo partly shown)	< 6.00
CN(CCC1CCN(Cc2cccc3c2n(C)c(=O)n3C2CCC(=O)NC2=O)CC1)C[C@H]1CC[C@H](n2cc(NC(=O)c3cnn4ccc(N5C[C@H](N)CC(F)(F)C5)nc34)c(C(F)F)n2)CC1 (stereo partly shown)	< 6.00
O=C1CCC(N2C[C@H](c3cccc(C#CCN4CCO[C@@H](CNC[C@H]5CC[C@H](n6cc(NC(=O)c7coc(-c8ccnc(NCC9CC9)c8)n7)c(C(F)F)n6)CC5)C4)c3)OC2=O)C(=O)N1 (stereo partly shown)	7.00 to 7.30
CN(CCCOCCCNc1cccc2c1C(=O)N(C1CCC(=O)NC1=O)C2=O)C[C@H]1CC[C@H](n2cc(N(C)C(=O)c3coc(-c4ccnc(NCC5CC5)c4)n3)c(C(F)F)n2)CC1 (stereo partly shown)	6.00 to 6.30
CN(CCCOCCCN(C)C(=O)c1ccc(CNCc2ccc(-c3ccc4c(cnn4CC4CC4)c3)cc2)cc1)C[C@H]1CC[C@H](n2cc(NC(=O)c3coc(-c4ccnc(NCC5CC5)c4)n3)c(C(F)F)n2)CC1	< 6.00
